These entries and their values trace back to the NTF2 design screens of Basanta et al. (2020).

# protease stability score per entry
assay: protease stability score; higher = more stable; yeast display proteolysis, trypsin and chymotrypsin
# respond with the number and nothing more

Before answering, review these 8 worked examples.
SEDERLVRHALNELLHHIETGDEERLIKLIDPNYRISINGQELHGWEEYVRLIREWRIRRFRVKDVDVQGDKANLDVRTHGDIDGQHHDFTIKIIATKINGRWINEEIIVE = 2.4
SEEEKRMRDVLRRMEEALKTGDWKFLKDLLDPHTRTVINGRDRHGREFVLEVFSRFGADHSDIEDEDFQGNFVILHLEMEIGDKRIRLRIYIEKINGRWIWRHVIFD = 2.85
DEREEHAEEIFRELIHWMETGDEKKMRRYFDPHARLEVGDKEFIGREKISEWMVELRLKDHKERHFDVVNGVAEIHGVMDGIIDGRRHRTEVIIDINIINGKFHRIRIIVK = 1.21
REEDKRAREDVEEWLRWFLTGDEEHLIKYADPNVRVDYGDKDIHGRNEATRIWREFLKHIRIHHVEVSHIKYVGEKVIVDVRLDGEINGRRVITHVEMEIIVVNGVLKSVHINSR = 1.21
DEDHKHSEEAIKRWIDTMVTGDERLFNHLADPHTKIEFNGVDNHGMEEAVRVMIFIFRLLGVDHIRIEFRERHVFNGKVVWHFHLERRIGDKTEHINTHILMEKVDGRWLIQSERYE = 1.56
KELEEHELRLAKDMSKVIETGDEERLRRLADPHVKVHINGKTRHGREWMSHLLNLMLTELRVRHLHIKDVFEVNGVAHSETELDGEVNGREIELHTEIILVVVNGKIQRLEIRIE = 1.06
TEDEELAKLVSEILLHIMETGDEDKLSKMADPHVRVNINGRERHGWRNMVRVLHETIRNLGIEIKSVHIRDLKIQGDKIRVTMEIDYQQGDKRNEWSSHLIIIKIDGRWHLHAFELN = 1.26
NEEEEHIFELWELFLKASHTGDEDSLKEFADPNTRQIVDGQEIHGREKFTEHLSWRAKELRLESVHIRRLHIIDGRIHVDGLIRGRINGREIEIETEVISIKVNGKWILKEMNFK = 1.28

query: Item SEDHRHAMEFIHHMVRAIHTGDEQILTEYLDPHVRIENENETLHGWEHRTEWMKRFDHIDRHIIVRHVEIQGNKVKVDAELRFRLHQGDFVEENEIRLRIIILKVDGRWVLHKVRFI : provide protease stability score
result: 1.35

query: Item SDEEERLRDFVRRYMESMRTGDEDTWRTMLDPNVQVTINGRWEIGRESAYEFLWTVFTHLGVDHLELDHFHLYGEKIELDLTAFVNGQTKKVRVELIVIDGKLKSEKIHDK : provide protease stability score
result: 1.12

query: Item DELEELEKEAIKESEDILRTGDEERILRLADPNVRVDIDGVVRHGREWWTRLFSDELRKFKGARIRLKEIRSFDGRIRIDTTLEVDGVTRDMYVISEKVNGRWIIRSIHYE : provide protease stability score
result: 1.33

* * *

test: protease stability score; higher = more stable; yeast display proteolysis, trypsin and chymotrypsin;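 note: relative to predicted unfolded state with 0 unfolded-like and 1 meaning tenfold more protease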
observed.property: protease stability score
# respond with the number and nothing more

Before answering, review these 2 worked examples.
HESTEYADYMLKFLSLVESTGNEDLFKRLFDPDVRLVINGVDTHGWESYHEHRKRVDHKEVEHSEIKHVEVQGEKIIVHGILHVRVKIGDKRFSFEIRFHLIVHKFNGKWHITSIEFH = 0.848
DEDEKLLEKIAREFFEALKTGDEDWLTELADPHVKLDVGEWDTHGMEEIKNVLKILLHELGFKHRELHDMDIVNGVNVIDVIIRINGKERKVTIIIVTIDGRIKSIHHRVN = 2.15

Alright, here's another sequence for you.
query: Item EEHYEDMHHAMELFIHAVRTGDEHTLSRMLDPNTRIRIDGVHLIGREQAVKWWLELYKKFPNMRLNLKRIDIFDGKLHVDLETNINGVRLDSHLLISKVDGQWRVDSIQHE : provide protease stability score
result: 1.5

* * *

# protease stability score per entry
assay: protease stability score; higher = more stable; yeast display proteolysis, trypsin and chymotrypsin;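 note: relative to predicted unfolded state with 0 unfolded-like and 1 meaning tenfold more protease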
# respond with the number and nothing more

Before answering, review these 6 worked examples.
DEEKDIMNEWWKRIFNVFHTGDEREHDKMLDPNARFDIGDKTLHGMDDFRRFLHRADHISHFTEHHVEVQGEKLVWEGTYDGEFNGVERRFHTHEQNIIINGKVKRVFFQIR = 0.834
DKENHLMRELTRLIVDYINTGDWKEFRKLADPHVRIVIEVGDKRIERHGMEDWLKLVRDRLEEIRTHIEVHDVEAQGDKAHLDGRIRLIVGEFEIVIESRIKVVSIDGKLKEISVHMV = 1.48
SEEEHHFERWMRVFLHSMRTGDPSSFEELLDPNTRFIYGDKERHGREEANKWAHHLRITHMEDTDFDVYDGVLTIDIRLDFVVNGRRHEVKTHLLVVKIDGRWLINEVEIK = 0.514
EEDKEDAKKAAEISSHSWETGDEDHLTKLFDPNVRITIGDKELHGMSLLHTFLREWGISNVDFRLHHIDVQGEKLKVDGILNVNGRHTKVTLHYEKINGKWVIKEIIII = 1.26
DEIEQIMEYLAHVHIEFIITGDEDTLEHLADPHVKIEVNGQSLVGWKHWSRFLKKLGWKRDMRVRHIHAQGDKIHVDGHLVNDFDGREFRYKTHLEIKVVDGKLKVIRIDQE = 1.41
DEEEEQARHMVMLFLRYILTGDEKHFQTLADPDVRTDVNGKEHHGREEATRTLRLYIELMGADHIQLKDWEIEVQGEFVRLRLHVQVDVGDKHLRTDLHFEIKKVNGQWVVHQVVIKTL = 2.19

query: Item HEDEKWMKHMLEMLIRSILTGDEETLHKLADPHVRLEINGQEYWGREQFTHAITQFIRHIRIDSIHVHDYHIQGEKVDFDMRSKFTINGQVDTSRLRVFILKVDGRWVVEEVIIR : provide protease stability score
result: 2.27

query: Item DEDEESNKLFEDLLSEAIRTGDWRMLRHLADPNVRVDINGKKLVGWEELMRFMHELRIDRHHSRIHDSDSQGDKMHIDVRLEIDGNINGRKHRFRIESELILVKVNGRWLLEESRVG : provide protease stability score
result: 1.67

query: Item SEDENLIKHVKELLTHRAHTGDERELERLVDPNVKIIVGDKFQIGRELMLETWHRWLEEAGVDQIRLTLHHERIQGDYIILEVTYDVNGREIELTIIHIKVNGKWRLHSMKVR : provide protease stability score
result: 0.529

* * *

test: protease stability score; higher = more stable; yeast display proteolysis, trypsin and chymotrypsin;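 note: relative to predicted unfolded state with 0 unfolded-like and 1 meaning tenfold more protease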
# protease stability score per entry
# respond with the number and nothing more

Before answering, review these 5 worked examples.
DEDEEEARKSFKHLLRSRMTGDEDSLKSLIDPNARFDIDGKELIGREAEELLLEKFKNIKLHDVKLNDWRVDEHHVVWRIELDGFYNGKRDSLDFTLIVKKVNGRWVIHQVKLI = 1.39
DEEEERARRDLFIWAHAVKTGDEKRYKELFDPNDKLDINGQEIHGMESVVKLIRHIRIEDIHLHLHDIRLIGDKLHVDGQIRQHTHVGDKRVHDTINVNDIVHKVNGQWHWKSIIYH = 1.03
DEDDELAERFFRFWLEFVLTGDEDSSSHLLDPDVRTKYNGVDFHGMESHSKLLLELRIKDFRFTRIRIINGRLEIHGRMHQEIDGKKVDTTVTIDSIKINGKWRVKTINIG = 1.73
DKEEELSEIAHKIWIHELHTGDFESLEKNMDPHARIIQGDWHYHGRESVYHVFSRIVRMLGVKHIEIHSMEVINGQVHLDTRLHAEGHSRNTHVFFVKINGRWLSKEFEIK = 0.711
DEREEHHEENARLLLEQFKTGNWDFLRSLADPNVQHNWDGRKSHGRESMVRLLIDHIRKVKGMRTEEKEVEFQGDKVILHGRVNINGREIEVIFILEVVDGRIKSLHIDFR = 0.697

Alright, here's another sequence for you.
query: Item SEDHKETEEAMHKIRHDLETGDEKSWHEQADPNTRIDINGVDLHGREWASKFYSDVMQKVKGATVHLKHVHIFENRLIVDGIEIVNGRTHRVHLIADKINGRWVIREIRVE : provide protease stability score
result: 1.06

* * *

test: protease stability score; higher = more stable; yeast display proteolysis, trypsin and chymotrypsin;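 note: relative to predicted unfolded state with 0 unfolded-like and 1 meaning tenfold more protease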
observed.property: protease stability score

Before answering, review these 2 worked examples.
DTDAVRRALKFIDAMQDGDPDKARELMDPNARVNIGDKEYHGMTSFVKDLKRLRDEIRVQYNIRDYNAQGEKIHVTVDVVFEHNGRPVDERFNVTIDIQGDKIKQVTAHRTK = 1.5
QEDEKLADEVVERIAHDIHTGDEDSLRHLMDPHVRLQVGDKRYIGRESVLEFLRQLRIEVEDVKIHDIHVVNGQMHSDTRIHGRIFVNGRDIETTLRSKHILLKYDGKWLWHSWHIH = 1.31

query: Item DDHDKLLQKLMRFWLWAFLTGDEDHFDEMADPNTRLSSIVNGRDIQLHGREQVNKHFKELRLHHFILRTWSVYDGRVEIDGQMDGEYDGRRIDTRVTIIIVIINGRSTREHLDFK : provide protease stability score
result: 0.261
